Target: T1, human interleukin 13 receptor subunit alpha 2 (IL-13RA2) (human, UniProt Q14627 27-380)
T1 sequence (looked up): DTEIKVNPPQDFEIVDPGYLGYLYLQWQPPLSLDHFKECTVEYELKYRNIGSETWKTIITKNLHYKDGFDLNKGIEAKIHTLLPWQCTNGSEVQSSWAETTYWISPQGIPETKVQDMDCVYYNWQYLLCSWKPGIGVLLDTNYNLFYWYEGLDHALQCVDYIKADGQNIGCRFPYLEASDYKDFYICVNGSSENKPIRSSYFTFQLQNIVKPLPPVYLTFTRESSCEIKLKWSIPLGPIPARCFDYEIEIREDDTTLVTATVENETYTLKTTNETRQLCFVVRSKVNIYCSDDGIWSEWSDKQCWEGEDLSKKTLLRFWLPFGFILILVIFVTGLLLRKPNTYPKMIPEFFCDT
Assay: cell-based or functional assay
METRIC NAME: internalization EC50 (pHAb dye), HEK-293/H IL-13RA2 cells (nM)
State just the number; it will be interpreted in nM.

>  <BINDER>
xi51G2B3 hIgG1 (antibody, V domains shown) VH: QVQLQQSGPELVKPGASVKISCKASGYAFSDSWMNWVKQRPGQGLEWIGRIYPGDGDTNYNGKFKGKATLTADKSSNTAYMQLSSLTSVDSAVYFCARSWNGSPWFPYWGQGTLVTVSA VL: DVLMTQTPLSLPVSLGDQASISCRSSQTIAHRNGNTYLEWYLQKPGQSPKLLLYKVSNRFSGVPDRFSGSGSGTDFTLKISRVEAEDLGVYYCFQGSHVTWTFGGGTKLEIK

>  <ENDPOINT RESULT>
3.84

$$$$
>  <BINDER>
xi62F6A8 hIgG1 (antibody, V domains shown) VH: QVQIQQSGAELARPGASVMLSCKASGYTFTDYWMQWIKQRPGQGLEGIGAIYPGDGDTAYNQKFRGKATLTADKSSSTAYMQLNSLASEDSAVYFCARGATLLRPFPFWGQGTLVTVSA VL: DIVMTQSHKFMSTSVGDRVSITCKASQDVSTAVAWYQQKPGQSPKLLIYSASYRYAGVPDRFTGSGSGTDFTFTISSVQAEDLAVYSCQQHYSIPPTFGGGTKLEIK

>  <ENDPOINT RESULT>
1.73

$$$$

Continue with the next binder.
Prompt: So what's the measured internalization EC50 (pHAb dye), HEK-293/H IL-13RA2 cells for this one? xi61H8C1 hIgG1 (antibody, V domains shown) VH: QVQLQQSGAELARPGASVMLSCKASGYTFTSYWTQWIKQRPGQGLEGIGAIYPGDDDTSYNQKFKGKATLTADKSSSTAYMQLNSLTSEDSAVYYCARGATLLRPFPYWGQGTLVTVSA VL: DIVMTQSHKFMSTSVGDRVSITCKASQDVSTAVAWYQQKPGQSPKLLIYSASYRYTGVPDRFTGSGSGTDFTFTISSVQAEDLAVYSCQQHYSIPPTFGGGTKLEIK
Response: 1.49
